- target_under_test: 5-HT2A receptor (Homo sapiens, UniProt P28223)
- Sequence (P28223 whole entry): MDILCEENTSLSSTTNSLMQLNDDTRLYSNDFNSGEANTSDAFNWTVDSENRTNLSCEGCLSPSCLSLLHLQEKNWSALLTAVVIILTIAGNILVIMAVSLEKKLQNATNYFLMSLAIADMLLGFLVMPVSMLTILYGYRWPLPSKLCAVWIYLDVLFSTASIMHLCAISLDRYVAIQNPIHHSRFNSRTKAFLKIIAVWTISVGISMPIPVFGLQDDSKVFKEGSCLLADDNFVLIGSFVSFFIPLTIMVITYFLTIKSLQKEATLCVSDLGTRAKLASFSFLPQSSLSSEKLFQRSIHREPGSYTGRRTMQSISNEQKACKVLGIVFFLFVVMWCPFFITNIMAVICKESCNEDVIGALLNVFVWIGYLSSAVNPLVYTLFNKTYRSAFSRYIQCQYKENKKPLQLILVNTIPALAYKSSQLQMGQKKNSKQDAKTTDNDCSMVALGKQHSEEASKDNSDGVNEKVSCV
- protocol_notes: 5-HT2A receptor radioligand competition assay (SPA)
Below, each entry is listed with its recorded Ki.
State the answer as a number, implicitly in µM.

Use these answered entries as a reference point.
molecule	unit_abbrev	Ki
CC(Cc1ccc2c(c1)OCCO2)NCc1ccc2c(c1)OCCO2 (centres unmarked) [A(XIII)]	µM	102
CC(Cc1ccc2c(c1)OCO2)NN(C)C (centres unmarked) [A(VIII)]	µM	3.38
COc1cc2c(cc1CCN1CCCC1)OCO2 [A(XIV)]	µM	11

Would you kindly share the measured Ki for O=C(Cc1c(Br)ccc2c1OCO2)N1CCCC1 [A(XXVI)] ?
31

Okay, and CC(Cc1ccc2c(c1)OCO2)N1CC(NC(=O)OC(C)(C)C)C1 (centres unmarked) [A(IV)] ?
15

Okay, and OCCNCCc1cc2c(cc1Br)OCO2 [A(XXX)] ?
11.7

Okay, and CC(Cc1ccc2c(c1)OCCO2)NCc1cc2c(cc1Br)OCCO2 (centres unmarked) [A(XI)] ?
7
